Entry source: paper PMC9069370

- Assay remarks: Tryptophan fluorescent binding assay
- Condition details: tryptophan fluorescence; 50 µM peptide, lipid titrated 0-5000 µM; phosphate buffered saline 1X, pH 7.4; values as lipid per peptide
Peptide text beside a SMILES is read from it.
Property name: Lipid Concentration-induced 50% Peptide Binding (L/P), 3POPC/1POPG Vesicle
Return type: number; implicit unit L/P.

// below: answered compounds
| Compound | Reported result |
| --- | --- |
| CC(C)C[C@H](NC(=O)CN)C(=O)N[C@@H](CC(C)C)C(=O)N[C@@H](CCCCN)C(=O)N[C@@H](CC(C)C)C(=O)N[C@@H](CC(C)C)C(=O)N[C@@H](Cc1c[nH]cn1)C(=O)N[C@@H](CC(C)C)C(=O)N[C@@H](CC(C)C)C(=O)N[C@@H](CC(C)C)C(=O)N[C@@H](CCCCN)C(=O)N[C@@H](C)C(=O)N[C@@H](C)C(=O)NCC(=O)N[C@@H](Cc1c[nH]c2ccccc12)C(N)=O [KHK] (H-GLLKLLHLLLKAAGW-NH2) | 0.38 |
| CC(C)C[C@H](NC(=O)CN)C(=O)N[C@@H](CC(C)C)C(=O)N[C@@H](Cc1c[nH]cn1)C(=O)N[C@@H](CC(C)C)C(=O)N[C@@H](CC(C)C)C(=O)N[C@@H](CCCCN)C(=O)N[C@@H](CC(C)C)C(=O)N[C@@H](CC(C)C)C(=O)N[C@@H](CC(C)C)C(=O)N[C@@H](CCCCN)C(=O)N[C@@H](C)C(=O)N[C@@H](C)C(=O)NCC(=O)N[C@@H](Cc1c[nH]c2ccccc12)C(N)=O [HKK] (H-GLLHLLKLLLKAAGW-NH2) | 0.14 |
| CC(C)C[C@H](NC(=O)CN)C(=O)N[C@@H](CC(C)C)C(=O)N[C@@H](CC(=O)O)C(=O)N[C@@H](CC(C)C)C(=O)N[C@@H](CC(C)C)C(=O)N[C@@H](CCCCN)C(=O)N[C@@H](CC(C)C)C(=O)N[C@@H](CC(C)C)C(=O)N[C@@H](CC(C)C)C(=O)N[C@@H](CCCCN)C(=O)N[C@@H](C)C(=O)N[C@@H](C)C(=O)NCC(=O)N[C@@H](Cc1c[nH]c2ccccc12)C(N)=O [DKK] (H-GLLDLLKLLLKAAGW-NH2) | 6.88 |
| CC(C)C[C@H](NC(=O)CN)C(=O)N[C@@H](CC(C)C)C(=O)N[C@@H](CCCCN)C(=O)N[C@@H](CC(C)C)C(=O)N[C@@H](CC(C)C)C(=O)N[C@@H](CCCCN)C(=O)N[C@@H](CC(C)C)C(=O)N[C@@H](CC(C)C)C(=O)N[C@@H](CC(C)C)C(=O)N[C@@H](Cc1c[nH]cn1)C(=O)N[C@@H](C)C(=O)N[C@@H](C)C(=O)NCC(=O)N[C@@H](Cc1c[nH]c2ccccc12)C(N)=O [KKH] (H-GLLKLLKLLLHAAGW-NH2) | 0.48 |

Suppose we examine the compound CC(C)C[C@H](NC(=O)CN)C(=O)N[C@@H](CC(C)C)C(=O)N[C@@H](CCC(=O)O)C(=O)N[C@@H](CC(C)C)C(=O)N[C@@H](CC(C)C)C(=O)N[C@@H](Cc1c[nH]cn1)C(=O)N[C@@H](CC(C)C)C(=O)N[C@@H](CC(C)C)C(=O)N[C@@H](CC(C)C)C(=O)N[C@@H](Cc1c[nH]cn1)C(=O)N[C@@H](C)C(=O)N[C@@H](C)C(=O)NCC(=O)N[C@@H](Cc1c[nH]c2ccccc12)C(N)=O [EHH] (H-GLLELLHLLLHAAGW-NH2) ; what Lipid Concentration-induced 50% Peptide Binding (L/P), 3POPC/1POPG Vesicle value has been reported?
0.69

* * *

Reported Peptide Concentration-induced 50 % ANTS/DPX leakage at pH 4.8 (L/P), 3POPC/1POPG Vesicle is given for each of the following compounds.
- Assay remarks: ANTS/DPX liposome leakage assay
- Condition details: 0.5 mM vesicles, peptide 0-20 µM, 3 h incubation, HCl-adjusted PBS 1X pH 4.8; lipid per peptide
Peptide text beside a SMILES is read from it.
Return type: number; implicit unit L/P.

| Compound | Reported result |
| --- | --- |
| CC(C)C[C@H](NC(=O)CN)C(=O)N[C@@H](CC(C)C)C(=O)N[C@@H](Cc1c[nH]cn1)C(=O)N[C@@H](CC(C)C)C(=O)N[C@@H](CC(C)C)C(=O)N[C@@H](Cc1c[nH]cn1)C(=O)N[C@@H](CC(C)C)C(=O)N[C@@H](CC(C)C)C(=O)N[C@@H](CC(C)C)C(=O)N[C@@H](CCC(=O)O)C(=O)N[C@@H](C)C(=O)N[C@@H](C)C(=O)NCC(=O)N[C@@H](Cc1c[nH]c2ccccc12)C(N)=O [HHE] (H-GLLHLLHLLLEAAGW-NH2) | 113 |
| CC(C)C[C@H](NC(=O)CN)C(=O)N[C@@H](CC(C)C)C(=O)N[C@@H](CCCCN)C(=O)N[C@@H](CC(C)C)C(=O)N[C@@H](CC(C)C)C(=O)N[C@@H](Cc1c[nH]cn1)C(=O)N[C@@H](CC(C)C)C(=O)N[C@@H](CC(C)C)C(=O)N[C@@H](CC(C)C)C(=O)N[C@@H](CCC(=O)O)C(=O)N[C@@H](C)C(=O)N[C@@H](C)C(=O)NCC(=O)N[C@@H](Cc1c[nH]c2ccccc12)C(N)=O [KHE] (H-GLLKLLHLLLEAAGW-NH2) | 156 |

Please examine the following record next.
Suppose we examine the compound CC(C)C[C@H](NC(=O)CN)C(=O)N[C@@H](CC(C)C)C(=O)N[C@@H](CC(=O)O)C(=O)N[C@@H](CC(C)C)C(=O)N[C@@H](CC(C)C)C(=O)N[C@@H](Cc1c[nH]cn1)C(=O)N[C@@H](CC(C)C)C(=O)N[C@@H](CC(C)C)C(=O)N[C@@H](CC(C)C)C(=O)N[C@@H](Cc1c[nH]cn1)C(=O)N[C@@H](C)C(=O)N[C@@H](C)C(=O)NCC(=O)N[C@@H](Cc1c[nH]c2ccccc12)C(N)=O [DHH] (H-GLLDLLHLLLHAAGW-NH2) ; what Peptide Concentration-induced 50 % ANTS/DPX leakage at pH 4.8 (L/P), 3POPC/1POPG Vesicle value has been reported?
98

* * *

Reported Lipid Concentration-induced 50% Peptide Binding (L/P), 3POPC/1POPG Vesicle is given for each of the following molecules.
- Assay remarks: Tryptophan fluorescent binding assay
- Condition details: tryptophan fluorescence; 50 µM peptide, lipid titrated 0-5000 µM; phosphate buffered saline 1X, pH 7.4; values as lipid per peptide
Peptide text beside a SMILES is read from it.
Return type: number; implicit unit L/P.

// below: answered molecules
| Molecule | Measure unit | Reported result |
| --- | --- | --- |
| CC(C)C[C@H](NC(=O)CN)C(=O)N[C@@H](CC(C)C)C(=O)N[C@@H](Cc1c[nH]cn1)C(=O)N[C@@H](CC(C)C)C(=O)N[C@@H](CC(C)C)C(=O)N[C@@H](CCCCN)C(=O)N[C@@H](CC(C)C)C(=O)N[C@@H](CC(C)C)C(=O)N[C@@H](CC(C)C)C(=O)N[C@@H](Cc1c[nH]cn1)C(=O)N[C@@H](C)C(=O)N[C@@H](C)C(=O)NCC(=O)N[C@@H](Cc1c[nH]c2ccccc12)C(N)=O [HKH] (H-GLLHLLKLLLHAAGW-NH2) | L/P | 0.38 |
| CC(C)C[C@H](NC(=O)CN)C(=O)N[C@@H](CC(C)C)C(=O)N[C@@H](CC(=O)O)C(=O)N[C@@H](CC(C)C)C(=O)N[C@@H](CC(C)C)C(=O)N[C@@H](Cc1c[nH]cn1)C(=O)N[C@@H](CC(C)C)C(=O)N[C@@H](CC(C)C)C(=O)N[C@@H](CC(C)C)C(=O)N[C@@H](Cc1c[nH]cn1)C(=O)N[C@@H](C)C(=O)N[C@@H](C)C(=O)NCC(=O)N[C@@H](Cc1c[nH]c2ccccc12)C(N)=O [DHH] (H-GLLDLLHLLLHAAGW-NH2) | L/P | 0.28 |
| CC(C)C[C@H](NC(=O)CN)C(=O)N[C@@H](CC(C)C)C(=O)N[C@@H](CC(=O)O)C(=O)N[C@@H](CC(C)C)C(=O)N[C@@H](CC(C)C)C(=O)N[C@@H](Cc1c[nH]cn1)C(=O)N[C@@H](CC(C)C)C(=O)N[C@@H](CC(C)C)C(=O)N[C@@H](CC(C)C)C(=O)N[C@@H](CCC(=O)O)C(=O)N[C@@H](C)C(=O)N[C@@H](C)C(=O)NCC(=O)N[C@@H](Cc1c[nH]c2ccccc12)C(N)=O [DHE] (H-GLLDLLHLLLEAAGW-NH2) | L/P | 0.72 |
| CC(C)C[C@H](NC(=O)CN)C(=O)N[C@@H](CC(C)C)C(=O)N[C@@H](Cc1c[nH]cn1)C(=O)N[C@@H](CC(C)C)C(=O)N[C@@H](CC(C)C)C(=O)N[C@@H](Cc1c[nH]cn1)C(=O)N[C@@H](CC(C)C)C(=O)N[C@@H](CC(C)C)C(=O)N[C@@H](CC(C)C)C(=O)N[C@@H](CCCCN)C(=O)N[C@@H](C)C(=O)N[C@@H](C)C(=O)NCC(=O)N[C@@H](Cc1c[nH]c2ccccc12)C(N)=O [HHK] (H-GLLHLLHLLLKAAGW-NH2) | L/P | 0.20 |

Please examine the following record next.
Suppose we examine the molecule CC(C)C[C@H](NC(=O)CN)C(=O)N[C@@H](CC(C)C)C(=O)N[C@@H](CC(=O)O)C(=O)N[C@@H](CC(C)C)C(=O)N[C@@H](CC(C)C)C(=O)N[C@@H](CCC(=O)O)C(=O)N[C@@H](CC(C)C)C(=O)N[C@@H](CC(C)C)C(=O)N[C@@H](CC(C)C)C(=O)N[C@@H](CCCCN)C(=O)N[C@@H](C)C(=O)N[C@@H](C)C(=O)NCC(=O)N[C@@H](Cc1c[nH]c2ccccc12)C(N)=O [DEK] (H-GLLDLLELLLKAAGW-NH2) ; what Lipid Concentration-induced 50% Peptide Binding (L/P), 3POPC/1POPG Vesicle value has been reported?
1.67
